Target: T1, human MSLN-R3-his protein (human, UniProt Q13421 487-598)
T1 construct: Region 3 of human mesothelin, made in HEK293E cells, His-tagged; also called human MSLN-R3 protein; hMSLN-R3-his; not shown: His tag
T1 sequence (Q13421 495-606): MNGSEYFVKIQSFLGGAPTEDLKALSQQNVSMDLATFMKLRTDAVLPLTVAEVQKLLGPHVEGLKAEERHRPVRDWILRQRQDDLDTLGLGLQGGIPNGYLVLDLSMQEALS
Test: ELISA on coated MSLN-R3; antibody 0.01 nM
Measured OD450, listed per entry.
The response must be a number in OD450 with no trailing unit.

Check out these entries, answers already filled in.
Tab106 (YP218, hIgG1) (antibody, V domains shown, also called YP218 human IgG1 antibody) VH: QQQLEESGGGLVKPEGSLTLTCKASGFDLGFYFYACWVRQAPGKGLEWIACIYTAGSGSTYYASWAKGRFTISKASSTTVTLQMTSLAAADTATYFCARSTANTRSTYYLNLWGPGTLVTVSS VL: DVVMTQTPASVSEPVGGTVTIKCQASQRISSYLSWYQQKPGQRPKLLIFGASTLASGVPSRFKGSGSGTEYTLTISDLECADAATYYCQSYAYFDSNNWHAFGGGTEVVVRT	0.52
S009-F8-33.12 (antibody, human IgG1, kappa, V domains shown) VH: EVQLQQSGAELVKPGASVKLSCTASAFNIKDYYMHWVKQRTEQGLEWIGRIDPEDGETKYAPKFQGKATITADTSSNTAYLQLSSLTSEDTAVYYCASGSGTGAMDYWGQGTSVTVSS VL: DIVMTQSQKFMSTSVGDRVSITCKASQNVRTAVGWYQQKPGQSPKALIYLASNRHTGVPDRFTGSGSGTDFTLTISNVQSEDLADYFCLQHWNSPYTFGGGTKLVIKR	0.04

Turning now to a further binder:
OD450 lookup needed for S009-F8-4.5 (antibody, human IgG1, kappa, V domains shown) VH: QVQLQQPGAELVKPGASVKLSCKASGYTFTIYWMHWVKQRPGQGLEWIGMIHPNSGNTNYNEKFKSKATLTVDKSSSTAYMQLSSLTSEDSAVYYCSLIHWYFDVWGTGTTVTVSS VL: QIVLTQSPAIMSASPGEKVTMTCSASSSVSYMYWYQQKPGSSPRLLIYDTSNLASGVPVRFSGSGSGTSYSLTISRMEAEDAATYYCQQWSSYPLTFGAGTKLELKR , thanks.
0.04
